Entries annotated with measured melting point

Recorded melting point, per entry:
MOLECULE	melting point
CCCCCCCCOC(=O)C(=C1SCCCS1)c1cccc(C(F)(F)F)c1	49 °C
O=C1NCN(c2ccccc2)C12CCN(C[C@@H]1CCc3ccc(Cl)cc3[C@H]1O)CC2 (relative stereo)	248 to 249 °C
CCN=C1NC(=O)C(OC)(c2nsc3ccc(-n4c(=O)cc(C(F)(F)F)n(C)c4=O)cc23)N1 (stereo not given)	205 °C

Quick one: melting point for CCCCCCCCCCCCCCCC(=O)OC(CCCCCCCCCCCCCC)C(=O)N[C@H](C(=O)N[C@@H](CCC(=O)O)C(=O)O)C(C)C (stereo not given in full) ?
101 to 103 °C

Try the molecule `COc1cc(OC)c(C(=O)CCCCCl)cc1N`
87 to 88 °C

Try the molecule N#CC1CCCCn2cccc21 (stereo not given)
70 to 72 °C

Try the molecule `c1ccc(Cc2ccccc2Cc2ccccc2)cc1`
61 to 67 °C

Try the molecule `N#CCC(=O)Nc1cc(N)ccc1[N+](=O)[O-]`
218 to 220 °C

Try the molecule `Cc1cc2ncc(-c3ccc(C(C)(C)C)cc3)c(N)n2n1`
218 °C

Try the molecule CC(C)(CF)C(O)C(Oc1ccc(Cl)cc1)n1cncn1 (stereo not given)
103 to 112 °C

Try the molecule `Oc1ccc(-c2nnc(-c3ccc(O)cc3)o2)cc1`
338 °C

Try the molecule `O=C1Nc2cnc(N3CCN(c4ccccn4)CC3)nc2S/C1=C/c1ccc([N+](=O)[O-])cc1`
332 to 334 °C

Try the molecule `O=C(O)C=CC(=O)c1ccccc1O`
172 to 173 °C

Try the molecule `O=C(Nc1ccc(Br)cc1-c1noc(=O)[nH]1)c1cccc(S(=O)(=O)N2CCOCC2)c1`
220 to 223 °C

Try the molecule CC1(C)CC(c2ccc3ccccc3c2)c2ccc(O)cc2O1 (stereo not given)
189 to 191 °C

Try the molecule `FC(F)(F)c1ccc(Cl)cc1CN1CCNc2ncc(-c3ccnc(N4CCNCC4)c3)cc21`
189 °C

Try the molecule `Cc1ccc(-c2ccccc2S(N)(=O)=O)cc1`
122 °C

Try the molecule `O=C(O)C1Oc2ccccc2Cc2ccccc2O1`
153 to 157 °C

Try the molecule CCCCC(=O)CC(=O)c1ccc(C2CCC(CC)CC2)cc1 (stereo not given)
90 °C

Try the molecule `COc1c(Br)cc2c3c(cccc13)C(=O)N(O)C2=O`
223 to 227 °C

Try the molecule `CC(C)Cc1c2c(nn1Cc1ccccc1)c(N)nc1ncccc12`
232 to 235 °C

Try the molecule `O=[N+]([O-])c1cc(Cl)cc(CO)c1`
74 to 75 °C

====

Entries annotated with measured melting point

COMPOUND	REPORTED VALUE
O=C(O)c1[nH]c2cc(Cl)cc(Cl)c2c1C=C1NC(=O)N(c2ccccc2)C1=O	> 250 °C
Cn1cc(Oc2ccccc2)c(=O)c(-c2ccccc2)c1	176 to 177 °C
COC(=O)C(C(=O)OC)[C@H]1C=Cc2ccccc2[C@H]1O (relative stereo)	65 to 67 °C
CC(Cc1cccc(N)c1)NC=O (stereo not given)	107 to 108 °C
CN(CCOc1ccc(CC(S)C(=O)O)cc1)c1nc2ccccc2o1 (stereo not given)	154 to 156 °C

Quick one: melting point for `COC(=O)Cc1cnc(-c2ccccc2)n1Cc1ccc([N+](=O)[O-])cc1` ?
113 to 116 °C

Try the compound Nc1cc(C(c2cc(F)ccc2F)S(=O)(=O)c2ccc(Cl)cc2)c(Br)cn1 (stereo not given)
204 to 206 °C

Try the compound COCCOc1cc([N+](=O)[O-])c2[nH]c(C3=NCC(C(OC)OC)S3)cc2c1 (stereo not given)
100 to 101 °C

Try the compound `Cc1nc(CC2CCN(c3ccc(F)cc3)CC2)nc(C(=O)NCC(=O)O)c1O`
104 to 105 °C

Try the compound `COc1ccccc1N1CCN(C(=S)Nc2nc3ccccc3nc2OC)CC1`
160 to 162 °C
